experimental.details: Inhibitory potency was evaluated against angiotensin converting enzyme at the pH 7.5
Assay type: ADME
assay.endpoint: half-life (days)

smiles.structure	observed.value
C[C@H](NP(=O)(Oc1ccccc1)Oc1ccccc1)C(=O)N1CCC[C@H]1C(=O)O	16

---

experimental.details: The half-life period was evaluated for the loss of 2 mol of phenol at the pH 7.5 in the presence of phosphate buffer
Assay type: ADME
assay.endpoint: half-life (h)

smiles.structure	observed.value
C[C@H](NP(=O)(Oc1ccc([N+](=O)[O-])cc1)Oc1ccc([N+](=O)[O-])cc1)C(=O)N1CCC[C@H]1C(=O)O	22

---

Listing: Ki of selected compounds
target.or.system: Angiotensin-converting enzyme (Oryctolagus cuniculus, UniProt P12822)
Sequence (P12822 whole entry): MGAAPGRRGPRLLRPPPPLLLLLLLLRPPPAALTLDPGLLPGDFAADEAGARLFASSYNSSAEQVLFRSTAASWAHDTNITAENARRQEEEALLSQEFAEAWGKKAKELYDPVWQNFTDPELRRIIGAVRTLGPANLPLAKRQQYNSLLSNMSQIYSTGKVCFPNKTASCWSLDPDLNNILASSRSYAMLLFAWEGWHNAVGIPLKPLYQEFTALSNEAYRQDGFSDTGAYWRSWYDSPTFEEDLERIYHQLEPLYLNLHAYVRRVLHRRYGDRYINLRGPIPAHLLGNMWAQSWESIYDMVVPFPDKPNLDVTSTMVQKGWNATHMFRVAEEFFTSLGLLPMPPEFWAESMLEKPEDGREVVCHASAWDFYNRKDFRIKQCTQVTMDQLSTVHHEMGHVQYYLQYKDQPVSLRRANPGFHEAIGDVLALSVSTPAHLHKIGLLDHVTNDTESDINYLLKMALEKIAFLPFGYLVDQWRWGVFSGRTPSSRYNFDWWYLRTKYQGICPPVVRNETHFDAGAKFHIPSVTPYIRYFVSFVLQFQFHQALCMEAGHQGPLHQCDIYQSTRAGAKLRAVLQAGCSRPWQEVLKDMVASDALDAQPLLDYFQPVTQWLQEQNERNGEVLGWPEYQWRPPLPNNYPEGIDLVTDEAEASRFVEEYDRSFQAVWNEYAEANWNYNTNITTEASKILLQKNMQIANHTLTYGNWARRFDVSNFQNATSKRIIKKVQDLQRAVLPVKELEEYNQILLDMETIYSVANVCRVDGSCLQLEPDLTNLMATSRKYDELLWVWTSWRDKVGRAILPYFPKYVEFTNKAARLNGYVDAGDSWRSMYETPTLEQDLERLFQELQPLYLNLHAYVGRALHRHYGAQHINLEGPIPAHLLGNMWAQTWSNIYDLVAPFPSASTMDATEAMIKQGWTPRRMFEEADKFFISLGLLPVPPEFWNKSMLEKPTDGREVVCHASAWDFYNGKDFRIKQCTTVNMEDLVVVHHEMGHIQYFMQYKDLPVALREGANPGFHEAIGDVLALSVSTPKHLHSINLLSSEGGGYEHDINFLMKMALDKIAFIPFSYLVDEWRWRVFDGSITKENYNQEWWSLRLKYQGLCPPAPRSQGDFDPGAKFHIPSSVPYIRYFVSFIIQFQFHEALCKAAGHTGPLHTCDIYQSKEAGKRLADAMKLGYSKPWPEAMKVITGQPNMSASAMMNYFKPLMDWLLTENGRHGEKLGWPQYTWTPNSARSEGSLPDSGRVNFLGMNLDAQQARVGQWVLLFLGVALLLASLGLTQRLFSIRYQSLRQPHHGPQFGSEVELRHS
experimental.details: Inhibition of Angiotensin I converting enzyme from rabbit lungs at pH 7.5
assay.endpoint: Ki (nM)

compound	observed.value
C[C@H](NP(=O)(O)OCc1ccccc1)C(=O)N1CCC[C@H]1C(=O)O	1.2
C[C@H](NP(=O)(O)Oc1ccccc1)C(=O)N1CCC[C@H]1C(=O)O	8
C[C@H](NP(=O)([O-])[O-])C(=O)N1CCC[C@H]1C(=O)[O-].[K+].[K+].[K+]	1.4
C[C@H](NP(=O)(O)CCc1ccccc1)C(=O)N1CCC[C@H]1C(=O)O	0.5
C[C@H](NP(=O)(O)Oc1ccc([N+](=O)[O-])cc1)C(=O)N1CCC[C@H]1C(=O)O	18
C[C@H](NP(=O)(Oc1ccc([N+](=O)[O-])cc1)Oc1ccc([N+](=O)[O-])cc1)C(=O)N1CCC[C@H]1C(=O)O	800
C[C@H](NP(=O)(Oc1ccccc1)Oc1ccccc1)C(=O)N1CCC[C@H]1C(=O)O	42000
C[C@H](NP(=O)(CCc1ccccc1)Oc1ccccc1)C(=O)N1CCC[C@H]1C(=O)O (stereo partly drawn)	55000
